System: NCI-H522
test.details: Growth inhibition of human NCI-H522 cells incubated for 48 hrs by sulforhodamine B assay
Format: functional
measurement.context: NCI-H522, 48 h
parameter.measured: GI50 (nM)
Enter your answer as a number in nM; do not include the unit.

Below, 3 compounds whose answers are already recorded.
compound=COc1cccc2c1C(=O)c1c(O)c3c(c(O)c1C2=O)C[C@@](O)(C(=O)CO)C[C@@H]3O[C@H]1C[C@H](N)[C@H](O)[C@H](C)O1 target_under_test=NCI-H522 parameter_measured=GI50 unit_label=nM number=30
compound=COc1ccc(C(=O)/C=C/c2cccc(Nc3ccnc4cc(Cl)ccc34)c2)cc1 target_under_test=NCI-H522 parameter_measured=GI50 unit_label=nM number=1880
compound=COc1cc(C(=O)/C=C/c2cccc(Nc3ccnc4cc(Cl)ccc34)c2)cc(OC)c1OC target_under_test=NCI-H522 parameter_measured=GI50 unit_label=nM number=590

Ask | Look up GI50 for this compound: COc1ccc(C2=NN(C=O)C(c3cccc(Nc4ccnc5cc(Cl)ccc45)c3)C2)cc1 (stereo not given)
Reply | 1330

Ask | Look up GI50 for this compound: O=CN1N=C(c2ccc(Cl)cc2)CC1c1cccc(Nc2ccnc3cc(Cl)ccc23)c1 (stereo not given)
Reply | 1120

====

Tested on: SNB-19
test.details: Growth inhibition of human SNB19 cells at 10 uM incubated for 48 hrs by sulforhodamine B assay
Assay type: functional, cell-based
The source made the active and inactive calls. No cut-off for these calls is given here.
parameter.measured: growth inhibition (GI)

Below, 5 compounds whose answers are already recorded.
compound="COc1ccc(C2=NN(c3ccccc3)C(c3cccc(Nc4ccnc5cc(Cl)ccc45)c3)C2)cc1 (stereo not given)" target_under_test=SNB-19 result=inactive
compound="O=CN1N=C(c2ccc(Cl)cc2)CC1c1cccc(Nc2ccnc3cc(Cl)ccc23)c1 (stereo not given)" target_under_test=SNB-19 result=Active
compound="Clc1ccc(C2=NN(c3ccc(Cl)cc3)C(c3cccc(Nc4ccnc5cc(Cl)ccc45)c3)C2)cc1 (stereo not given)" target_under_test=SNB-19 result=inactive
compound="COc1cc(C2=NN(c3ccc(Cl)cc3)C(c3cccc(Nc4ccnc5cc(Cl)ccc45)c3)C2)cc(OC)c1OC (stereo not given)" target_under_test=SNB-19 result=inactive
compound=COc1ccc(C(=O)/C=C/c2cccc(Nc3ccnc4cc(Cl)ccc34)c2)cc1 target_under_test=SNB-19 result=Active

Ask | Look up growth inhibition (GI) for this compound: Clc1ccc(C2=NN(c3ccccc3)C(c3cccc(Nc4ccnc5cc(Cl)ccc45)c3)C2)cc1 (stereo not given)
Reply | inactive

Ask | Look up growth inhibition (GI) for this compound: COc1ccc(C2=NN(C=O)C(c3cccc(Nc4ccnc5cc(Cl)ccc45)c3)C2)cc1 (stereo not given)
Reply | Active

Ask | Look up growth inhibition (GI) for this compound: Clc1ccc(C2=NN(c3cc(Cl)cc(Cl)c3)C(c3cccc(Nc4ccnc5cc(Cl)ccc45)c3)C2)cc1 (stereo not given)
Reply | inactive

Ask | Look up growth inhibition (GI) for this compound: COc1ccc(C2=NN(c3ccc(Cl)cc3)C(c3cccc(Nc4ccnc5cc(Cl)ccc45)c3)C2)cc1 (stereo not given)
Reply | inactive

Ask | Look up growth inhibition (GI) for this compound: "COc1cc(C(=O)/C=C/c2cccc(Nc3ccnc4cc(Cl)ccc34)c2)cc(OC)c1OC"
Reply | Active

====

Tested on: Candida albicans
test.details: Growth inhibition of Candida albicans ATCC 10231 at 7.8 ug/ml incubated for 48 hrs under dark condition by broth microdilution method relative to control
Type: functional
measurement.context: ATCC 10231, 48 h, read-out: GI
Use 1.0 when the recorded inhibition of growth at 7.8 µg/mL is no lower than 10%; use 0.0 when it is lower.

molecule=O=C(/C=C/c1cccc(Nc2ccnc3cc(Cl)ccc23)c1)c1ccc(Cl)cc1 target_under_test="Candida albicans" classification=1.0
molecule=COc1cc(C(=O)/C=C/c2cccc(Nc3ccnc4cc(Cl)ccc34)c2)cc(OC)c1OC target_under_test="Candida albicans" classification=0.0
molecule="Cc1ccc(C2=NN(C=O)C(c3cccc(Nc4ccnc5cc(Cl)ccc45)c3)C2)cc1 (stereo not given)" target_under_test="Candida albicans" classification=1.0

Ask | Could you verify whether the entry Clc1ccc(N2N=C(c3ccccc3)CC2c2cccc(Nc3ccnc4cc(Cl)ccc34)c2)cc1 (stereo not given) shows inhibition of growth at 7.8 µg/mL of no less than 10%?
Reply | 0.0

Ask | Could you verify whether the entry "O=Cc1cccc(Nc2ccnc3cc(Cl)ccc23)c1" shows inhibition of growth at 7.8 µg/mL of no less than 10%?
Reply | 0.0

====

Test system: NCI-H226
test.details: Growth inhibition of human NCI-H226 cells incubated for 48 hrs by sulforhodamine B assay
Assay type: functional
measurement.context: NCI-H226, 48 h, read-out: LC50 (the source's name)
Items are presented alongside their recorded CC50.
Enter your answer as a number in µM; do not include the unit.

compound=COc1cc(C(=O)/C=C/c2cccc(Nc3ccnc4cc(Cl)ccc34)c2)cc(OC)c1OC number=6.85

Now turn to the next compound.
Ask | Look up CC50 for this compound: COc1cccc2c1C(=O)c1c(O)c3c(c(O)c1C2=O)C[C@@](O)(C(=O)CO)C[C@@H]3O[C@H]1C[C@H](N)[C@H](O)[C@H](C)O1 [DOXORUBICIN]
Reply | 6.4

====

Test system: Candida albicans
test.details: Growth inhibition of Candida albicans ATCC 10231 at 125 ug/ml incubated for 48 hrs under dark condition by broth microdilution method relative to control
Assay type: functional
measurement.context: ATCC 10231, 48 h, read-out: GI
Items are presented alongside their recorded inhibition of growth at 125 µg/mL.
Enter your answer as a number in %; do not include the unit.

compound="Cc1ccc(C2=NN(c3ccccc3)C(c3cccc(Nc4ccnc5cc(Cl)ccc45)c3)C2)cc1 (centres undefined)" parameter_measured="inhibition of growth at 125 µg/mL" number=22.9

Ask | Look up inhibition of growth at 125 µg/mL for this compound: "O=C(/C=C/c1cccc(Nc2ccnc3cc(Cl)ccc23)c1)c1ccc(Br)cc1"
Reply | 47.7

Ask | Look up inhibition of growth at 125 µg/mL for this compound: "COc1cc(C(=O)/C=C/c2cccc(Nc3ccnc4cc(Cl)ccc34)c2)cc(OC)c1OC"
Reply | 10.7

Ask | Look up inhibition of growth at 125 µg/mL for this compound: COc1cc(C2=NN(c3ccccc3)C(c3cccc(Nc4ccnc5cc(Cl)ccc45)c3)C2)cc(OC)c1OC (centres undefined)
Reply | 42.3

Ask | Look up inhibition of growth at 125 µg/mL for this compound: COc1cc(C2=NN(C=O)C(c3cccc(Nc4ccnc5cc(Cl)ccc45)c3)C2)cc(OC)c1OC (centres undefined)
Reply | 26.7

Ask | Look up inhibition of growth at 125 µg/mL for this compound: Clc1cc(Cl)cc(N2N=C(c3ccc(Br)cc3)CC2c2cccc(Nc3ccnc4cc(Cl)ccc34)c2)c1 (centres undefined)
Reply | 7.23

Ask | Look up inhibition of growth at 125 µg/mL for this compound: Cc1ccc(C2=NN(C=O)C(c3cccc(Nc4ccnc5cc(Cl)ccc45)c3)C2)cc1 (centres undefined)
Reply | 28.5

Ask | Look up inhibition of growth at 125 µg/mL for this compound: O=CN1N=C(c2ccc(Br)cc2)CC1c1cccc(Nc2ccnc3cc(Cl)ccc23)c1 (centres undefined)
Reply | 31.4

Ask | Look up inhibition of growth at 125 µg/mL for this compound: CC(=O)N1N=C(c2ccccc2)CC1c1cccc(Nc2ccnc3cc(Cl)ccc23)c1 (centres undefined)
Reply | 27.5

====

Items are presented alongside their recorded LC50 (concentration giving 50% net cell kill).
System: A549
test.details: Growth inhibition of human A549/ATCC cells incubated for 48 hrs by sulforhodamine B assay
Type: functional
measurement.context: A549, 48 h

molecule="O=CN1N=C(c2ccc(Cl)cc2)CC1c1cccc(Nc2ccnc3cc(Cl)ccc23)c1 (centres undefined)" result="> 100 µM"
molecule="COc1ccc(C2=NN(C=O)C(c3cccc(Nc4ccnc5cc(Cl)ccc45)c3)C2)cc1 (centres undefined)" result="> 100 µM"
molecule=COc1cc(C(=O)/C=C/c2cccc(Nc3ccnc4cc(Cl)ccc34)c2)cc(OC)c1OC result="11.5 µM"

Now turn to the next molecule.
Ask | Look up LC50 (concentration giving 50% net cell kill) for this molecule: "COc1ccc(C(=O)/C=C/c2cccc(Nc3ccnc4cc(Cl)ccc34)c2)cc1"
Reply | > 100 µM

====

System: Candida albicans
test.details: Growth inhibition of Candida albicans ATCC 10231 at 3.4 ug/ml incubated for 48 hrs under dark condition by broth microdilution method relative to control
Type: functional
measurement.context: ATCC 10231, 48 h, read-out: GI
Items are presented alongside their recorded inhibition of growth at 3.4 µg/mL.
Remember to follow the number with its unit.

compound=COc1cc(C(=O)/C=C/c2cccc(Nc3ccnc4cc(Cl)ccc34)c2)cc(OC)c1OC result=1.24%

Ask | Look up inhibition of growth at 3.4 µg/mL for this compound: O=CN1N=C(c2ccc(Cl)cc2)CC1c1cccc(Nc2ccnc3cc(Cl)ccc23)c1 (stereo not given)
Reply | 9.81%

Ask | Look up inhibition of growth at 3.4 µg/mL for this compound: Clc1ccc(C2=NN(c3ccc(Cl)cc3)C(c3cccc(Nc4ccnc5cc(Cl)ccc45)c3)C2)cc1 (stereo not given)
Reply | 0%

Ask | Look up inhibition of growth at 3.4 µg/mL for this compound: O=CN1N=C(c2ccc(Br)cc2)CC1c1cccc(Nc2ccnc3cc(Cl)ccc23)c1 (stereo not given)
Reply | 5.76%

Ask | Look up inhibition of growth at 3.4 µg/mL for this compound: Cc1ccc(C2=NN(c3ccccc3)C(c3cccc(Nc4ccnc5cc(Cl)ccc45)c3)C2)cc1 (stereo not given)
Reply | 2.29%
